- assay.explanation: Antimalarial blood schizonticidal test in mice
- Assay type: in vivo, Plasmodium berghei (infected ICR/HA Swiss mice)
- assay.setup: mouse, in vivo, sc, single dose, infected mice; highest dose with no deaths for any reason; read-out: Highest Non-Lethal Dose
endpoint: MTD (mg/kg)
One number for each entry, in mg/kg.

// worked examples, MTD included
{"compound": "Nc1nc(N)c2c(ccc3c2ccn3Cc2cccc3ccccc23)n1 [Example 47]", "unit.of.measure": "mg/kg", "MTD": 80}
{"compound": "COc1cccc(Cn2ccc3c4c(N)nc(N)nc4ccc32)c1 [Example 33]", "unit.of.measure": "mg/kg", "MTD": 40}
{"compound": "COc1ccc(Cn2ccc3c4c(N)nc(N)nc4ccc32)cc1 [Example 34]", "unit.of.measure": "mg/kg", "MTD": 160}
{"compound": "Nc1nc(N)c2c(ccc3c2ccn3Cc2ccccn2)n1 [Example 43]", "unit.of.measure": "mg/kg", "MTD": 80}

Batch request: MTD per item, same order as input.
1. N#Cc1ccccc1Cn1ccc2c3c(N)nc(N)nc3ccc21 [Example 14]
2. CCOC(=O)c1ccc(Cn2ccc3c4c(N)nc(N)nc4ccc32)cc1 [Example 17]
3. Nc1nc(N)c2c(ccc3c2ccn3Cc2cccc(F)c2)n1 [Example 4]
4. Cc1ccc2ccccc2c1Cn1ccc2c3c(N)nc(N)nc3ccc21 [Example 49]
5. Nc1nc(N)c2c(ccc3c2ccn3-c2ccc([N+](=O)[O-])cc2)n1 [Example 77]

stdout:
1: 160; 2: 80; 3: 40; 4: 80; 5: 640

Provide MTD values for the following items, in order.
1. Nc1nc(N)c2c(ccc3c2ccn3Cc2cccc3cccnc23)n1 [Example 51]
2. COc1ccccc1Cn1ccc2c3c(N)nc(N)nc3ccc21 [Example 32]
3. Nc1nc(N)c2c(ccc3c2ccn3Cc2cccc([N+](=O)[O-])c2)n1 [Example 18]
4. Nc1nc(N)c2c(ccc3c2ccn3Cc2cccnc2)n1 [Example 44]

stdout:
[40, 160, 40, 160]

Consider the following items and state reported MTD for each.
1. Nc1nc(N)c2c(ccc3c2ccn3Cc2ccccc2F)n1 [Example 3]
2. N#Cc1ccc(-n2ccc3c4c(N)nc(N)nc4ccc32)cc1 [Example 69]
3. Nc1nc(N)c2c(ccc3c2ccn3Cc2cccc(Cl)c2)n1 [Example 7]
4. Nc1nc(N)c2c(ccc3c2ccn3Cc2ccc(F)cc2)n1 [Example 5]
5. CC(C)c1ccc(Cn2ccc3c4c(N)nc(N)nc4ccc32)cc1 [Example 29]
6. Cc1ccc(Cn2ccc3c4c(N)nc(N)nc4ccc32)cc1 [Example 21]

stdout:
80
20
160
80
20
160

stdin: Which MTD is reported for this compound? Cc1cc(-n2ccc3c4c(N)nc(N)nc4ccc32)ccc1[N+](=O)[O-] [Example 80]
stdout: 640
